# Tested on: Pseudomonas aeruginosa
# Protocol summary: Synergistic antibacterial activity against Pseudomonas aeruginosa ATCC 15442 in presence of 0.25 times MIC of colistin incubated for 18 to 20 hrs by broth microdilution method
# Assay type: functional
# Recorded conditions: time 18-20 hrs
Quick list: MIC per entry.
Respond numerically; units are µg/mL and should not be typed.

Compound	Measured target	MIC (µg/mL)
CC[C@H]1OC(=O)[C@H](C)[C@@H](O[C@H]2C[C@@](C)(OC)[C@@H](O)[C@H](C)O2)[C@H](C)[C@@H](O[C@@H]2O[C@H](C)C[C@H](N(C)C)[C@H]2O)[C@](C)(O)C[C@@H](C)C(=O)[C@H](C)[C@@H](O)[C@]1(C)O [ERYTHROMYCIN]	Pseudomonas aeruginosa	2

Next:
Qu. Kindly state the measured MIC obtained for Cc1ccc(Cn2c(-c3cccc(NS(C)(=O)=O)c3)nc3ccccc32)cc1 with Pseudomonas aeruginosa.
Ans. 16
